src = patent US20210145976A1

biological target: CD71 on SK-BR-3 cells (human, UniProt P02786 1-760); assay: cell-based or functional assay
Sequence (P02786 whole entry): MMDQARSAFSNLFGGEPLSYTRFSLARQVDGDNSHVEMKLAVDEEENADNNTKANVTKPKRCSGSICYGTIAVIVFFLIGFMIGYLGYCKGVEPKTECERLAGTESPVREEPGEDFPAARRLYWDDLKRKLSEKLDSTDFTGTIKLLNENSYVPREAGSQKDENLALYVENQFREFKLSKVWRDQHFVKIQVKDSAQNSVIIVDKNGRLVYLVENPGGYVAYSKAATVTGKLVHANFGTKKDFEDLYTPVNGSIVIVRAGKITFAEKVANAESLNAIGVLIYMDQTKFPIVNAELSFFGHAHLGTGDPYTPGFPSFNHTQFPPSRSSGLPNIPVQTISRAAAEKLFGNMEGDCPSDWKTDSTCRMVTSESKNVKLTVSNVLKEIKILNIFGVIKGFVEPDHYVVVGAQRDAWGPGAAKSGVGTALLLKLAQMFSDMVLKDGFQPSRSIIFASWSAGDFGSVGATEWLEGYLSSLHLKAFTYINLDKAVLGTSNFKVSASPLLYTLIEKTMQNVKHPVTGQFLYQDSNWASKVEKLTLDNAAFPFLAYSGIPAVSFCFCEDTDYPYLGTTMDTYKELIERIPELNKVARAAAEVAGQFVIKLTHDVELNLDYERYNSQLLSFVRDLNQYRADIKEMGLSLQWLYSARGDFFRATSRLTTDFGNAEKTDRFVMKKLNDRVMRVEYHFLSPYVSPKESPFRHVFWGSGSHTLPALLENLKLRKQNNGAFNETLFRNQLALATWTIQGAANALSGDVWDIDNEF
readoutKind: IC50, SKBR-3 cell viability, MMAF conjugate (nM)
# unit: nM | format: bare number

binder | unitOfMeasure | experimentalResult
SEQ ID NO 45 (designed binder, FN3 domain) MLPAPKNLVVSRVTEDSARLSWTAPDAAFDSFAIYYLESYPEGEAIVLTVPGSERSYDLTGLKPGTEYWVGIDGVKGGTWSSPLSAIFTT | nM | 8.3

Q. // Input: SEQ ID NO 51 (designed binder, FN3 domain) MLPAPKNLVVSRVTEDSARLSWTAPDAAFDSFFIKYIEWWADGEAIVLTVPGSERSYDLTGLKPGTEYLVEIYGVKGGKWSWPLSAIFTT . Output its IC50, SKBR-3 cell viability, MMAF conjugate only.
A. 4.9

Q. // Input: SEQ ID NO 44 (designed binder, FN3 domain) MLPAPKNLVVSRVTEDSARLSWTAPDAAFDSFYIEYYESLPDGEAIVLTVPGSERSYDLTGLKPGTEYAVYIYGVKGGYYSRPLSAIFTT . Output its IC50, SKBR-3 cell viability, MMAF conjugate only.
A. 2.5

Q. // Input: SEQ ID NO 50 (designed binder, FN3 domain) MLPAPKNLVVSRVTEDSARLSWTAPDAAFDSFVIEYREGAWYGEAIVLTVPGSERSYDLTGLKPGTEYFVDITGVKGGWWSDPLSAIFTT . Output its IC50, SKBR-3 cell viability, MMAF conjugate only.
A. 3.1
